This section presents molecules with their documented logP values.
Assay explanation: Partition coefficient (logP) (dodecane)
Assay conditions: octanol/water
Quantity kind: logP

Molecule	Comparison symbol	Reported value
Oc1cccc(Cl)c1	=	-0.34
CC(=O)Nc1ccccc1 [ACETANILIDE]	=	-1.76
COc1ccccc1 [ANISOLE]	=	2.06
Cc1cc(=O)n(-c2ccccc2)n1C [ANTIPYRINE]	=	-2.52
CN1C(=O)Cc2ccccc21	=	-0.9
NC(=O)c1ccccc1N [ANTHRANILAMIDE]	=	-2.72
CC(=O)c1ccccc1 [ACETOPHENONE]	=	0.94
CC(=O)c1ccc(S(C)(=O)=O)cc1	=	-1.56
NC(=O)c1ccccc1 [BENZAMIDE]	=	-2.67
OC[C@H]1O[C@H](O)[C@H](O)[C@@H](O)[C@@H]1O	<	-3
Brc1cnc2ccccc2c1	=	2.59
OCc1ccccc1 [BENZYL ALCOHOL]	=	-0.77
c1ccc2nccnc2c1 [QUINOXALINE]	=	0.51
Oc1ccccc1 [PHENOL]	=	-1.04
O=C1Cc2ccccc2N1 [OXINDOLE]	=	-1.95
c1ccc2nc3ccccc3cc2c1 [ACRIDINE]	=	2.32
O=[N+]([O-])c1ccccc1 [NITROBENZENE]	=	1.43
NS(=O)(=O)c1ccccc1 [BENZENESULFONAMIDE]	=	-3.14

---

Assay explanation: Partition coefficient (logP)
Assay conditions: octanol/water
Quantity kind: logP

Molecule	Reported value
c1ccc2nccnc2c1	1.35
CC(=O)c1ccccc1	1.56
CC(=O)c1ccc(S(C)(=O)=O)cc1	0.33
c1ccc2nc3ccccc3cc2c1	2.98
NC(=O)c1ccccc1N [ANTHRANILAMIDE]	0.32
Brc1cnc2ccccc2c1	3.11
CN1C(=O)Cc2ccccc21	0.63
Oc1ccccc1	1.5
NC(=O)c1ccccc1 [BENZAMIDE]	0.67
CC(=O)Nc1ccccc1 [ACETANILIDE]	1.13
O=[N+]([O-])c1ccccc1	1.84
NS(=O)(=O)c1ccccc1 [BENZENESULFONAMIDE]	0.33
OC[C@H]1O[C@H](O)[C@H](O)[C@@H](O)[C@@H]1O	-3.02
O=C1Cc2ccccc2N1	1.07

Data origin, for the record: ChEMBL document CHEMBL1135392
